Reference source for all entries: patent US7888291B2

molecular target: Hu-Asp2 (Homo sapiens, UniProt P56817); construct: made in house; host or cells: High Five insect cells; experiment: Hu-Asp2 peptide substrate cleavage assay (HPLC quantitation of cleavage products); format: biochemical; set-up: key: Those substrates that were not cleaved by the Hu-Asp2 are indicated by a “−” sign; substrates that produced activity are indicated by “+” signs in which the greater the activity, the more + signs are provided; ++: substrates that produced activity are indicated by “+” signs in which the greater the activity, the more + signs are provided; ++++: substrates that produced activity are indicated by “+” signs in which the greater the activity, the more + signs are provided; conditions: 200 μM test substrate, 210 nM Hu-Asp2 enzyme, pH 4.5, 37° C., 3 hours
Sequence (P56817 46-501): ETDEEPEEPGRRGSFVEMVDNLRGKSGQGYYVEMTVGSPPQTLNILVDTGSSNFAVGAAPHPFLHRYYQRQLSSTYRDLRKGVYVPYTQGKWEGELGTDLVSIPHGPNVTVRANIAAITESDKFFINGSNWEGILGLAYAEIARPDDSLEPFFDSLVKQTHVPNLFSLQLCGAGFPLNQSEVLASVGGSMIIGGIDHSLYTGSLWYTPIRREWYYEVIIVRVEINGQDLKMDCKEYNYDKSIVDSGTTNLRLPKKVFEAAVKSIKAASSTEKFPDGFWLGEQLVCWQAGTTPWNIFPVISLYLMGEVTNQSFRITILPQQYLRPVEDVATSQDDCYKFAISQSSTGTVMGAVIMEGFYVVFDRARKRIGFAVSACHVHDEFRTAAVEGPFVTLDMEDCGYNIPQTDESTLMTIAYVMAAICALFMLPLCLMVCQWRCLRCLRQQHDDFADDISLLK
Non-standard residues stand in square brackets, D forms with d. No end group written: not given here. SO3‑ = not defined here
property.name: Activity

Some solved entries appear below for comparison.
• KVEANY-EVEGERKK (KVEANYEVEGERKK) = ++++
• KVEANY-LVEGERKK (KVEANYLVEGERKK) = +
• KVEALY-AVEGERKK (KVEALYAVEGERKK) = +
• KVEANL-AVEGERKK (KVEANLAVEGERKK) = +

response.value for KVEALY-LV(SO3-)GER (KVEALYLV[SO3‑]GER; reading uncertain; also: sulfonated residue, parent residue not given here, printed as KVEALY-LV(SO3-)GER) (field: Activity) = −
